B1: TRIM55 (parent)
chain: FQMEKIEHGYENMNHFTVNLNREE

- Variants of: B1
- Test Method Notes: protein stability index of a GFP-peptide fusion (GPS, HEK-293T) (PSI 1-6); higher = more stable;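 also: lentivirally expressed fusions sorted by FACS into six bins by GFP to DsRed ratio, PSI derived from sequencing read proportions per bin multiplied by bin number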
- Condition Details: c terminus: a fixed tail appended

- Mutant Name: "G9V"
  protein stability index: 3.03
- Mutant Name: "G9T"
  protein stability index: 3.07
- Mutant Name: "N14S"
  protein stability index: 2.68
- Mutant Name: "Q2I"
  protein stability index: 2.06
- Mutant Name: "E7Y"
  protein stability index: 2.1
- Mutant Name: "M13L"
  protein stability index: 2.61
- Mutant Name: "L20N"
  protein stability index: 3.5
- Mutant Name: "N21C"
  protein stability index: 1.82
- Mutant Name: "V18Y"
  protein stability index: 2.39
- Mutant Name: "L20M"
  protein stability index: 2.51
- Mutant Name: "E24P"
  protein stability index: 2.37
- Mutant Name: "R22D"
  protein stability index: 3.32
- Mutant Name: "V18N"
  protein stability index: 3.52
- Mutant Name: "E23G"
  protein stability index: 2.28
- Mutant Name: "T17C"
  protein stability index: 2.49
- Mutant Name: "M3I"
  protein stability index: 2.82
- Mutant Name: "R22S"
  protein stability index: 3
- Mutant Name: "F1W"
  protein stability index: 3.78
- Mutant Name: "E23K"
  protein stability index: 2.26
- Mutant Name: "N21E"
  protein stability index: 3.54
- Mutant Name: "E24W"
  protein stability index: 2.1
- Mutant Name: "E23F"
  protein stability index: 1.88
- Mutant Name: "E23V"
  protein stability index: 2.62
- Mutant Name: "E24M"
  protein stability index: 1.57
- Mutant Name: "E11S"
  protein stability index: 2.59
- Mutant Name: "Y10D"
  protein stability index: 3.31
- Mutant Name: "N12E"
  protein stability index: 3.57
- Mutant Name: "G9L"
  protein stability index: 2.94
- Mutant Name: "T17D"
  protein stability index: 4.07
- Mutant Name: "N19V"
  protein stability index: 2.29
- Mutant Name: "T17S"
  protein stability index: 3.03
- Mutant Name: "E24K"
  protein stability index: 2.57
- Mutant Name: "E7S"
  protein stability index: 2.34
- Mutant Name: "I6P"
  protein stability index: 3.32
- Mutant Name: "N14L"
  protein stability index: 2.29
- Mutant Name: "E23N"
  protein stability index: 2.87
- Mutant Name: "G9H"
  protein stability index: 3.22
- Mutant Name: "E4K"
  protein stability index: 2.37
- Mutant Name: "H8N"
  protein stability index: 2.89
- Mutant Name: "H8E"
  protein stability index: 3.51
- Mutant Name: "N12A"
  protein stability index: 2.19
- Mutant Name: "F16H"
  protein stability index: 4.09
- Mutant Name: "F16Q"
  protein stability index: 4.23
- Mutant Name: "N14E"
  protein stability index: 4.16
- Mutant Name: "V18E"
  protein stability index: 3.61
- Mutant Name: "H8K"
  protein stability index: 2.84
